# procedureDetails: Solubility of compound at pH 7.4 incubated for 18 hrs by UV-spectra analysis
# Type: physicochemical
# measurementParameters: buffer, pH 7.4
metricName: solubility at 18 h (µM)
Output spec: scalar in µM, unitless text.

compound | solubility at 18 h [µM]
O=C1CCC(N2Cc3cc(Nc4noc5ccccc45)ccc3C2=O)C(=O)N1 (configuration not stated) | 36

Now examine the next entry.
In: Requested field: solubility at 18 h. Item: Cc1ccc2c(Nc3ccc4c(c3)CN(C3CCC(=O)NC3=O)C4=O)noc2c1 (configuration not stated)
Out: 7

* * *

Property: solubility; scope: individual molecules
# procedureDetails: Solubility of compound at pH 7.4 incubated for 18 hrs by UV-spectra analysis
# Format: physicochemical
# measurementParameters: buffer, pH 7.4, 18 h
Give your result in µM as a bare value.

Worked examples, 5 molecules total:
molecule | unitSpec | resultValue
Cc1cccc(C(=O)Nc2ccc3c(c2)CN(C2CCC(=O)NC2=O)C3=O)c1 (stereo unspecified) | µM | 10
Cc1ccc(C(=O)Nc2ccc3c(c2)CN(C2CCC(=O)NC2=O)C3=O)cc1 (stereo unspecified) | µM | 2.5
COc1cccc(C(=O)Nc2ccc3c(c2)CN(C2CCC(=O)NC2=O)C3=O)c1 (stereo unspecified) | µM | 79
O=C1CCC(N2Cc3cc(NC(=O)c4ccc(F)cc4)ccc3C2=O)C(=O)N1 (stereo unspecified) | µM | 30
O=C1CCC(N2Cc3cc(Nc4noc5cc(F)ccc45)ccc3C2=O)C(=O)N1 (stereo unspecified) | µM | 26

Continue with the molecule presented below.
In: // solubility lookup, key: O=C1CCC(N2Cc3cc(NC(=O)c4cccc(F)c4)ccc3C2=O)C(=O)N1 (stereo unspecified)
Out: 19
